Biological target: T1, Human Nectin-4 (residues Gly32-Ser349) with C-terminal FLAG tag, biotinylated (human, UniProt Q96NY8 32-349, randomly biotinylated with EZ-Link Sulfo-NHS-LC-LC-Biotin)
T1 construct: range 32-349; Captured through biotin on a streptavidin CM5 chip in the SPR assay; also called PVRL4; not shown: C-terminal FLAG tag
T1 sequence (looked up): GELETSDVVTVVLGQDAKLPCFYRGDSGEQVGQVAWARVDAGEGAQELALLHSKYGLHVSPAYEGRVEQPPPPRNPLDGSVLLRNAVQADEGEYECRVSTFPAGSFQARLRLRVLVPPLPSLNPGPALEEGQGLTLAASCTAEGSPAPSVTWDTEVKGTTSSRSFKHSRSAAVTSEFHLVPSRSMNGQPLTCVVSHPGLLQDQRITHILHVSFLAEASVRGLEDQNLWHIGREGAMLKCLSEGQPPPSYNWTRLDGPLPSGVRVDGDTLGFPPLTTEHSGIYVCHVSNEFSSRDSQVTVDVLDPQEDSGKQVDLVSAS
Assay: SPR (Biacore), biotinylated human Nectin-4 on streptavidin chip
*1 amine or outer side, *2 acyl side, *3 side chain or, on linkers, in order; H or OH if unused. Bridges are numbered along the chain shown (N, C = ends). Where no end group is shown, it is not given here. [ ]: non-standard residue; d: D form. TATA = O=C(CC[*:1])N1CN(C(=O)CC[*:2])CN(C(=O)CC[*:3])C1; 1Nal = N[C@@H](Cc1cccc2ccccc12)C(=O)O; Hyp = O=C(O)[C@@H]1C[C@@H](O)CN1; hArg = N=C(N)NCCCC[C@H](N)C(=O)O; βAla = NCCC(=O)O; Sar = CNCC(=O)O
Labelling field: enter Criterion met if recorded Kd is less than 3 nM. Enter Criterion not met if it equals or exceeds that cut-off.

Worked cases, answers included:
* Ac-CP[1Nal][dD]CL[hArg]DWSTP[Hyp]WC (linker 1-5-15 via TATA, Bicyclic peptide cyclised with TATA) [BCY8212] | Criterion met
* {Ac-βAla}-[Sar][Sar][Sar][Sar][Sar]CP[1Nal][dD]CM[hArg]NWSTP[Hyp]WC (linker 6-10-20 via TATA, Bicyclic peptide cyclised with TATA) [BCY8120] | Criterion met
* CPF[dD]CM[hArg]NWSTPIWC (linker 1-5-15 via TATA, Bicyclic peptide cyclised with TATA) [BCY7793] | Criterion not met
* Ac-CP[1Nal][dR]CM[hArg]DWSTP[Hyp]WC (linker 1-5-15 via TATA, Bicyclic peptide cyclised with TATA) [BCY8184] | Criterion met
* Ac-CP[1Nal][dR]CL[hArg]HWSTP[Hyp]WC (linker 1-5-15 via TATA, Bicyclic peptide cyclised with TATA) [BCY8214] | Criterion met
* Ac-QKWCAPLSDYWCNRIC (linker 4-12-16 via TATA, Bicyclic peptide cyclised with TATA) [BCY7392] | Criterion not met
* {Ac-βAla}-[Sar][Sar][Sar][Sar][Sar]CP[1Nal][dD]CM[hArg]DWSTPIWC (linker 6-10-20 via TATA, Bicyclic peptide cyclised with TATA) [BCY8123] | Criterion met
* Ac-CP[1Nal][dD]CM[hArg]DWSTPIWC (linker 1-5-15 via TATA, Bicyclic peptide cyclised with TATA) [BCY8127] | Criterion met

Q. Does the reported Kd of the following binder sit strictly below 3 nM? Ac-CP[1Nal][dD]CM[hArg]HWSTP[Hyp]WC (linker 1-5-15 via TATA, Bicyclic peptide cyclised with TATA) [BCY8125]
A. Criterion met

Q. Does the reported Kd of the following binder sit strictly below 3 nM? Ac-CPF[dD]CL[hArg]NWSTPPWC (linker 1-5-15 via TATA, Bicyclic peptide cyclised with TATA) [BCY8038]
A. Criterion not met

Q. Does the reported Kd of the following binder sit strictly below 3 nM? Ac-CVTTSYDCWVTLGHCSRF (linker 1-8-15 via TATA, Bicyclic peptide cyclised with TATA) [BCY7393]
A. Criterion not met
